Reported values: pIC50 for mTOR (Homo sapiens), one per item.
pIC50: −log10 of the molar value.

Example entries begin here.
compound=O=C1CNc2ncc(-c3cccc4[nH]ncc34)nc2N1CCC1CCOCC1 observed_value="6.60 to 11.30"
compound="CC(C)(O)c1ccc(-c2cnc3c(n2)N2CCOCC2C(=O)N3)cn1 (centres unmarked)" observed_value="6.00 to 6.30"
compound=COCCN1CC(=O)Nc2ncc(-c3ccc(-c4nnc[nH]4)c(F)c3)nc21 observed_value="6.60 to 11.30"
compound=O=C1CN(C[C@@H]2CCCO2)c2nc(-c3ccc(-c4nnc[nH]4)cc3)cnc2N1 observed_value="6.60 to 11.30"
compound=CC(C)CN1CC(=O)Nc2ncc(-c3ccc(C(C)(C)O)nc3)nc21 observed_value="6.00 to 6.30"

Give pIC50 (mTOR (Homo sapiens)) of the following compound: `CC(C)(O)c1ccc(-c2cnc3c(n2)N(CC2CCCC2)C(=O)CN3)cn1`
6.00 to 6.30

Field: pIC50 (mTOR (Homo sapiens)). Entry: `CO[C@@H]1CC[C@@H](N2C(=O)CNc3ncc(-c4ccc(C(C)(C)O)nc4)nc32)C1`
6.60 to 11.30

Give pIC50 (mTOR (Homo sapiens)) of the following compound: `CO[C@@H]1CC[C@H](CN2CC(=O)Nc3ncc(-c4ccc(C(C)(C)O)nc4)nc32)C1`
6.60 to 11.30

---

Molecular target: mTOR (Homo sapiens, UniProt P42345)
Construct: purchased Invitrogen PR8683A
Sequence (P42345 1360-2549 limits assumed): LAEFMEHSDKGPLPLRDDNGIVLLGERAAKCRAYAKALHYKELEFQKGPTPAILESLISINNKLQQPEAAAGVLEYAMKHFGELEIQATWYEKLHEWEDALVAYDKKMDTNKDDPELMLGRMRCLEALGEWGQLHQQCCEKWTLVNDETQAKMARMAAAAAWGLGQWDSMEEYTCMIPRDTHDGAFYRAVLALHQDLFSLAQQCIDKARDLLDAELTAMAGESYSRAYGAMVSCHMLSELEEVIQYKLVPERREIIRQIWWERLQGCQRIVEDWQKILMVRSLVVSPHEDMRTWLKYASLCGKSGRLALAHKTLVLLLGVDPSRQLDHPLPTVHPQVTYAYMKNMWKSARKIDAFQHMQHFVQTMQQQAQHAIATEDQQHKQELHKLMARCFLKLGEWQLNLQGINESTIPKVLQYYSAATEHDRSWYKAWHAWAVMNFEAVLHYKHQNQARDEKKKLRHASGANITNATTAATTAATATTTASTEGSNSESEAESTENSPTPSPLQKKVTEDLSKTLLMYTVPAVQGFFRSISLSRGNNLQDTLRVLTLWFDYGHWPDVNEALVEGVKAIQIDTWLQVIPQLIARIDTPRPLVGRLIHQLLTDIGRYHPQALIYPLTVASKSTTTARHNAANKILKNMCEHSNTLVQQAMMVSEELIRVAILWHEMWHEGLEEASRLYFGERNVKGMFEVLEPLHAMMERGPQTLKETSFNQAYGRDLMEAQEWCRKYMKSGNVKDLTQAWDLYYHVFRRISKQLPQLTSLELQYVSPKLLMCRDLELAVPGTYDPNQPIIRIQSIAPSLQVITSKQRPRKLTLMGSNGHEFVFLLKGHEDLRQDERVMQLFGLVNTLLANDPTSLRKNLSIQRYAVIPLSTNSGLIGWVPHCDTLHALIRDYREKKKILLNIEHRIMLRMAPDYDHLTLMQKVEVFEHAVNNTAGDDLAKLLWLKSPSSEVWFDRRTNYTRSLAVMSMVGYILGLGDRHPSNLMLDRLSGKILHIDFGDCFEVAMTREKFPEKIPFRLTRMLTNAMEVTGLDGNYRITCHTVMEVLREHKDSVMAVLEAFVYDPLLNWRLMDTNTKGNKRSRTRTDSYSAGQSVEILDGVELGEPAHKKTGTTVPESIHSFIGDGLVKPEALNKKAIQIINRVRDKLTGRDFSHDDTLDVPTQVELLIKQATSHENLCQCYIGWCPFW
Assay: mTOR HTR-FRET assay
Format: biochemical
Conditions: read-out: Act. Level (IC50 in mTor HTR-FRET assay)
pIC50: −log10 of the molar value.
Quick list: pIC50 per entry.

Answered cases to consult:
compound_structure=CO[C@@H]1CC[C@H](N2C(=O)CNc3ncc(-c4ccc(-c5nnc[nH]5)nc4C)nc32)C1 observed_value="6.60 to 11.30"
compound_structure=CO[C@H]1CC[C@H](N2CC(=O)Nc3ncc(-c4ccc(C(C)(C)O)nc4C)nc32)CC1 observed_value="6.30 to 6.60"
compound_structure=O=C1CN(CCC2CCOCC2)c2nc(-c3ccc4[nH]ncc4c3)cnc2N1 observed_value="6.30 to 6.60"

Now turn to the next compound.
Data request, read-out pIC50, for `Cc1cc(-c2nc[nH]n2)c(F)cc1-c1cnc2c(n1)N(C(C)C)CC(=O)N2`
6.60 to 11.30

---

Target: mTOR (Homo sapiens, UniProt P42345)
Construct: purchased Invitrogen PR8683A
Test: mTOR HTR-FRET assay
Type: biochemical
Conditions: read-out: Act. Level (IC50 in mTor HTR-FRET assay)
IC50 values, listed per item

Look over these answered cases.
molecule=CCN1CC(=O)Nc2ncc(-c3cc(F)c(-c4nc[nH]n4)cc3C)nc21 observed_value="0.005 to 250 nM"
molecule=O=C1CNc2ncc(-c3ccc(-c4nnc[nH]4)c(F)c3)nc2N1CCC1CCOCC1 observed_value="0.005 to 250 nM"
molecule=CC(C)(O)c1ccc(-c2cnc3c(n2)N(CCN2CCOCC2)CC(=O)N3)cn1 observed_value="1000 to 10000 nM"
molecule=Nc1cc(-c2cnc3c(n2)N(CCC2CCOCC2)C(=O)CN3)ccn1 observed_value="500 to 1000 nM"
molecule="COCCN1CCN2c3nc(-c4ccc(-c5nnc[nH]5)cc4C)cnc3NC(=O)C2C1 (centres unmarked)" observed_value="250 to 500 nM"

Return IC50 measured with mTOR (Homo sapiens, UniProt P42345) given this molecule: `CO[C@H]1CC[C@H](N2C(=O)CNc3ncc(-c4cc(F)c(-c5nc[nH]n5)cc4C)nc32)CC1`
0.005 to 250 nM

Param readout = IC50; param system = mTOR (Homo sapiens, UniProt P42345); param query = `CC(C)(O)c1ccc(-c2cnc3c(n2)N(CC2CCCC2)CC(=O)N3)cn1` ; response: value
0.005 to 250 nM

mTOR (Homo sapiens, UniProt P42345) / IC50 / `Cc1cc(-c2nnc[nH]2)ccc1-c1cnc2c(n1)N(CC1CCOCC1)C1(CCCC1)C(=O)N2` : value?
0.005 to 250 nM

Request: IC50, test system mTOR (Homo sapiens, UniProt P42345), entry `Cc1cc(C(C)(C)O)ncc1-c1cnc2c(n1)N(CC1CCOCC1)CC(=O)N2`
0.005 to 250 nM

---

Molecular target: mTOR (Homo sapiens, UniProt P42345)
Construct: purchased Invitrogen PR8683A
Assay: mTOR HTR-FRET assay
Assay type: biochemical
Details: read-out: Act. Level (IC50 in mTor HTR-FRET assay)
Measured Attribute: IC50

Below, 6 compounds whose answers are already recorded.
compound=CO[C@H]1CC[C@@H](N2C(=O)CNc3ncc(-c4ccc(C(C)(C)O)nc4)nc32)C1 measured_attribute=IC50 observed_value="0.005 to 250 nM"
compound=O=C1CNc2ncc(-c3ccc(-c4nc[nH]n4)nc3)nc2N1C1CCOCC1 measured_attribute=IC50 observed_value="0.005 to 250 nM"
compound=CNc1nc2c(C)cc(-c3cnc4c(n3)N(CCOC)C(=O)CN4)cc2[nH]1 measured_attribute=IC50 observed_value="0.005 to 250 nM"
compound=CCN1CC(=O)Nc2ncc(-c3ccc(-c4nc[nH]n4)nc3)nc21 measured_attribute=IC50 observed_value="0.005 to 250 nM"
compound=O=C1CNc2ncc(-c3ccc4[nH]ncc4c3)nc2N1CCC1CCOCC1 measured_attribute=IC50 observed_value="500 to 1000 nM"
compound=CO[C@H]1CC[C@H](CN2CC(=O)Nc3ncc(-c4ccc(C(C)(C)O)nc4)nc32)C1 measured_attribute=IC50 observed_value="0.005 to 250 nM"

Consider the compound `CC(C)(O)c1ccc(-c2cnc3c(n2)N([C@H]2CCOC2)CC(=O)N3)cn1` and give its measured IC50.
500 to 1000 nM

Query (compound): `O=C1CNc2ncc(-c3ccc4cc[nH]c4c3)nc2N1CCC1CCOCC1` ; field requested: IC50
250 to 500 nM

Name the recorded IC50 for `O=C1CNc2ncc(-c3cccnc3)nc2N1CCC1CCOCC1` .
500 to 1000 nM

I would be grateful if you could share the reported IC50 for `Cc1nc(-c2nnc[nH]2)ccc1-c1cnc2c(n1)N(CCC1CCOCC1)C(C)(C)C(=O)N2` .
0.005 to 250 nM

# IC50 lookup, item Cc1cc(-c2nnc[nH]2)ccc1-c1cnc2c(n1)N(CCC1CCOCC1)C(C)C(=O)N2 (centres unmarked)
0.005 to 250 nM

Form field: reported IC50 of `CC(C)(O)c1ccc(-c2cnc3c(n2)N(CCc2ccccc2)CC(=O)N3)cn1`
250 to 500 nM

Item `C[C@H](O)c1ccc(-c2cnc3c(n2)N(CCC2CCOCC2)C(=O)CN3)cn1` has what recorded IC50?
0.005 to 250 nM

GET /values?readout=IC50&item= `O=C1CNc2ncc(-c3ccc(-c4nc[nH]n4)nc3)nc2N1C[C@H]1CC[C@@H](O)CC1`
0.005 to 250 nM

---

pIC50: −log10 of the molar value.
Target or system UniProt P42345: recorded pIC50 listed per item.

Guide cases for pIC50, answers given:
compound="C[C@H]1C(=O)Nc2ncc(-c3ccc(C(C)(C)O)nc3)nc2N1CCC1CCOCC1 [Example 132]" observed_value="6.60 to 11.30"
compound="Cc1nc(-c2nnc[nH]2)ccc1-c1cnc2c(n1)N1CCOCC1C(=O)N2 (stereo not shown) [Example 100]" observed_value="6.30 to 6.60"
compound="O=C1CN(CCC2CCOCC2)c2nc(-c3cnc4[nH]ccc4c3)cnc2N1 [Example 43]" observed_value="6.60 to 11.30"
compound="CO[C@H]1CC[C@@H](N2CC(=O)Nc3ncc(-c4ccc(-c5nnc[nH]5)nc4C)nc32)C1 [Example 38]" observed_value="6.60 to 11.30"
compound="CO[C@H]1CC[C@H](CN2C(=O)CNc3ncc(-c4cnc(C(N)=O)cc4C)nc32)CC1 [Example 206]" observed_value="5.00 to 6.00"

Short answer please: pIC50, UniProt P42345, entry Cc1cc(C(N)=O)ncc1-c1cnc2c(n1)N(C(C)C)C(=O)CN2 [Example 180]
6.60 to 11.30

Short answer please: pIC50, UniProt P42345, entry CO[C@H]1CC[C@H](N2C(=O)CNc3ncc(-c4ccc(C(C)(C)O)[n+]([O-])c4)nc32)CC1 [Example 198]
5.00 to 6.00

Test system UniProt P42345; read-out pIC50; what value for CO[C@@H]1CC[C@H](CN2CC(=O)Nc3ncc(-c4ccc(-c5nnc[nH]5)nc4C)nc32)C1 [Example 47] ?
6.60 to 11.30

Hello, I am looking for reported pIC50 with UniProt P42345 for CO[C@H]1CC[C@H](N2C(=O)CNc3ncc(-c4ccc(C(C)(C)O)nc4)nc32)C1 [Example 210] . Could you help?
6.60 to 11.30

Request - read-out pIC50 | tested on UniProt P42345 | compound CO[C@H]1CC[C@@H](N2CC(=O)Nc3ncc(-c4ccc(C(C)(C)O)nc4)nc32)C1 [Example 51]
6.60 to 11.30
